- MEASUREMENT TARGET: natural β-amyloid peptide β-AP1-40 (human)
- Sequence (peptide, as listed by the source): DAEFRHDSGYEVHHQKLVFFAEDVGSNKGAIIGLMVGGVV
- PROTOCOL: cell-based or functional assay
Ends that are not written are not given here. * marks the point of attachment. Cholyl = C[C@H](CCC(=O)*)[C@H]1CC[C@H]2[C@@H]3[C@H](O)C[C@@H]4C[C@H](O)CC[C@]4(C)[C@H]3C[C@H](O)[C@]12C
READOUT LABEL: % Iext'n; seeded extension assay; 25 mole % (%)
Express your answer in %, writing the number without its unit.

| BINDER | READOUT NUMBER |
| --- | --- |
| Cholyl-FFVL-OH (SMILES CC(C)C[C@H](NC(=O)[C@@H](NC(=O)[C@H](Cc1ccccc1)NC(=O)[C@H](Cc1ccccc1)NC(=O)CC[C@@H](C)[C@H]1CC[C@H]2[C@@H]3[C@H](O)C[C@@H]4C[C@H](O)CC[C@]4(C)[C@H]3C[C@H](O)[C@]12C)C(C)C)C(=O)O) [CA-FFVL-oh] | 75 |
| Cholyl-Leu-Val-Phe-OH (SMILES CC(C)C[C@H](NC(=O)CC[C@@H](C)[C@H]1CC[C@H]2[C@@H]3[C@H](O)C[C@@H]4C[C@H](O)CC[C@]4(C)[C@H]3C[C@H](O)[C@]12C)C(=O)N[C@H](C(=O)N[C@@H](Cc1ccccc1)C(=O)O)C(C)C) [CA-LVF-oh] | 0 |
| Cholyl-FFVLA-OH (SMILES CC(C)C[C@H](NC(=O)[C@@H](NC(=O)[C@H](Cc1ccccc1)NC(=O)[C@H](Cc1ccccc1)NC(=O)CC[C@@H](C)[C@H]1CC[C@H]2[C@@H]3[C@H](O)C[C@@H]4C[C@H](O)CC[C@]4(C)[C@H]3C[C@H](O)[C@]12C)C(C)C)C(=O)N[C@@H](C)C(=O)O) [CA-FFVLA-oh] | 89 |

Prompt line: # % Iext'n; seeded extension assay; 25 mole % lookup, item Cholyl-LVAFA-OH (SMILES CC(C)C[C@H](NC(=O)CC[C@@H](C)[C@H]1CC[C@H]2[C@@H]3[C@H](O)C[C@@H]4C[C@H](O)CC[C@]4(C)[C@H]3C[C@H](O)[C@]12C)C(=O)N[C@H](C(=O)N[C@@H](C)C(=O)N[C@@H](Cc1ccccc1)C(=O)N[C@@H](C)C(=O)O)C(C)C) [CA-LVAFA-oh]
Response line: 0

Prompt line: # iterate: Cholyl-KLTFF [cholyl-Aβ16-20 (Val18->Thr)]
Response line: 44

Prompt line: What about this binder? Cholyl-Phe-Phe-Ala-OH (SMILES C[C@H](NC(=O)[C@H](Cc1ccccc1)NC(=O)[C@H](Cc1ccccc1)NC(=O)CC[C@@H](C)[C@H]1CC[C@H]2[C@@H]3[C@H](O)C[C@@H]4C[C@H](O)CC[C@]4(C)[C@H]3C[C@H](O)[C@]12C)C(=O)O) [CA-FFA-oh]
Response line: 6
